This collection of values is drawn from ChEMBL document CHEMBL1201862.

# System: RXF 393
# Measurement notes: NCI tumour cell line growth inhibition, 48 h
The source made the active and inactive calls. Rule as the data show it: active = GI50 up to about 1.1 µM and inactive = higher.
Outcomes: active, inactive

# Molecule, Class label
measured = [
    ("N=C(N)N/N=C/c1c(-c2ccc(Cl)cc2)nc2n1CCS2", "inactive"),
    ("Cc1ccc(/C=N/Nc2ncccn2)s1", "inactive"),
    ("COc1cccc2c1C(=O)c1c(O)c3c(c(O)c1C2=O)C[C@@](O)(C(=O)CO)CC3OC1CC(NCCCC(OC(C)=O)OC(C)=O)C(O)C(C)O1 (some centres not stated)", "active"),
    ("O=C(N/N=C\\c1ccc([N+](=O)[O-])cc1)Nc1ccccc1", "inactive"),
    ("CC1CCC2(OC1)OC1CC3C4CCC5CC(O)CCC5(C)C4CC(=O)OC3(C)C1C2C (configuration not stated)", "inactive"),
    ("C/C(=N\\NC(=O)C[N+](C)(C)C)c1sc(-c2cccnc2)nc1C", "inactive"),
    ("CNC1C(OC2C(OC3C(O)C(O)C(O)C(O)C3O)OC(C)C2(O)CO)OC(CO)C(O)C1O.N=C(N)N.NC(=O)O (configuration not stated)", "inactive"),
    ("Nc1nc(Cl)cc(NCCO)n1", "inactive"),
    ("O=[N+]([O-])c1ccc(Cl)cc1N/N=C/c1cccs1", "inactive"),
    ("CCC/C(Cl)=N/OC(=O)Nc1cc(C(F)(F)F)ccc1OC", "inactive"),
    ("Nc1ncnc2c(C3OC(CO)C(O)C3O)n[nH]c12 (configuration not stated)", "active"),
    ("Cc1cc(C)c2c(=O)n(CC(O)CN3CCN(c4ncccn4)CC3)sc2n1 (configuration not stated)", "inactive"),
    ("CN1CCN(C(=S)N(C(=O)c2ccco2)C2CCCCC2)CC1", "inactive"),
    ("O=[N+]([O-])c1ccc2c(c1)/C(=N/N=C1c3ccccc3Cc3ccccc31)c1cc([N+](=O)[O-])cc([N+](=O)[O-])c1-2", "inactive"),
    ("Cn1c(=O)c(-c2ccccc2)c(O)c2ccccc21", "inactive"),
    ("COc1ccc2c(c1)CCCN2S(=O)(=O)c1ccccc1[N+](=O)[O-]", "inactive"),
    ("O=C1CC(O)c2cscc21 (configuration not stated)", "inactive"),
    ("COC(=O)C1OC(SCCN)C(O)C(O)C1O (configuration not stated)", "inactive"),
    ("O=C(O)Cc1cccc2c(=O)cc(-c3ccccc3)oc12", "inactive"),
    ("CCCCc1ccc(Nc2nc3ncnc-3c[nH]2)cc1", "inactive"),
    ("O=c1oc2cc(O)ccc2cc1-c1nc2ccccc2s1", "inactive"),
    ("Cc1cc2c(c3oc(C4(C)OC4C4OC4C)cc(=O)c13)C(=O)c1c(O)c(C3CC(C)(N(C)C)C(O)C(C)O3)cc(C3CC(N(C)C)C(O)C(C)O3)c1C2=O (configuration not stated)", "active"),
]
